Tested on: HCT-116
Experiment Summary: NCI tumour cell line growth inhibition, 48 h
Calls of active or inactive are those of the source. Cut-off read from the data, not from the text of the source: active = GI50 up to about 1.1 µM and inactive = higher.
Property: GI50

[Q] Which value of GI50 has been reported for CCN(CC)CCN1C(=O)c2c(c(-c3ccccc3)c3ccccc3c2-c2ccccc2)C1=O in the records?
[A] > 100 µM (inactive)

[Q] Any idea what its GI50 is? The molecule is O=Cc1cn(CCCCCCCCn2cc(C=O)c3ccccc32)c2ccccc12
[A] 7.4 µM (inactive)

[Q] Recorded GI50 of CC(=O)c1cccc(NCn2nnc3ccccc32)c1 , please.
[A] > 100 µM (inactive)

[Q] Value lookup for GI50; key = O=C(Nc1nncs1)NS(=O)(=O)n1c(=S)sc2ccccc21
[A] > 100 µM (inactive)

[Q] What GI50 value was documented for this molecule, COc1ccc2c(c1)[n+]([O-])c(/C(C)=N/NC(=O)c1ccccc1O)c(C)[n+]2[O-] ?
[A] > 100 µM (inactive)

[Q] What value of measured GI50 is listed for CSc1nc(-c2cc3c(c(SC)n2)CCC3)cc2c1CCC2 ?
[A] > 100 µM (inactive)
